Where do the numbers come from? From patent US10941182.

Kindly state EC50 Rat APJ Receptor for each of the entries shown.
Biological target: T1, rat APJ receptor (rat, UniProt Q9JHG3 1-377)
T1 sequence (looked up): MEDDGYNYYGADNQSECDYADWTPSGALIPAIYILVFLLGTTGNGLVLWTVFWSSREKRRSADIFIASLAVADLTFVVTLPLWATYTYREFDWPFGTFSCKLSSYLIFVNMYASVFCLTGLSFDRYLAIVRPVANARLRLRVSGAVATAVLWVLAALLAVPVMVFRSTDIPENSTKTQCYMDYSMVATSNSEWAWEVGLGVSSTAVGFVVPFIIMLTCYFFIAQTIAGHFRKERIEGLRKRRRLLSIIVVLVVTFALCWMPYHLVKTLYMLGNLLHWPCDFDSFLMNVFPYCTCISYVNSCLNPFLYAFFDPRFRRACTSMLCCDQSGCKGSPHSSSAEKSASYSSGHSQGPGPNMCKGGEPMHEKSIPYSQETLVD
Test: cell-based or functional assay
Non-standard residues stand in square brackets, D forms with d. Primed or numbered codes have the meaning given here. No end group written: not given here. Oic = O=C(O)[C@@H]1C[C@@H]2CCCC[C@@H]2N1; Phe(4-Cl) = N[C@@H](Cc1ccc(Cl)cc1)C(=O)O; NMeR = CN[C@@H](CCCNC(=N)N)C(=O)O; hArg = N=C(N)NCCCC[C@H](N)C(=O)O; Cha = N[C@@H](CC1CCCCC1)C(=O)O; β3hQ = NC(=O)CC[C@H](N)CC(=O)O; Nle = CCCC[C@H](N)C(=O)O; Orn = NCCC[C@H](N)C(=O)O; Pip′ = not defined here
One number for each entry, in nM.

* [Orn]F[hArg][hArg][β3hQ][hArg]P[hArg][Cha]SHKG[Oic][Nle]P[Phe(4-Cl)] [apelin polypeptide SEQ ID NO: 690] | 0.183

Take each entry in turn and give its EC50 Rat APJ Receptor.
1. Ac-[hArg]Q[dR]P[NMeR][Cha]SHKG[Oic][Nle]P[Phe(4-Cl)]-OH [apelin polypeptide SEQ ID NO: 23]
2. [Orn]F[hArg][hArg]Q[hArg]P[hArg][Cha]SHKG[Pip′][Nle]P[Phe(4-Cl)] [apelin polypeptide SEQ ID NO: 707]

32.2
0.471
